assay_target: RdRp of the influenza virus (replicon activity) (Influenza A virus)
procedure_text: Influenza virus RdRp replicon reporter (Luc) assay in transduced 293T cells
Type: cell-based, Influenza A/PR/8/34 (H1N1)
reported_conditions: Pralatrexate concentration 0 μM; read-out: T-705 50% inhibitory concentration
observed_property: IC50
Give the number first and the unit second.

### Prompt Would you mind telling me what IC50 value was observed for NC(=O)c1nc(F)cnc1O [T-705, 6-Fluoro-3-hydroxy-2-pyrazinecarboxamide] ?
### Response 304 µM

* * *

assay_target: UniProt:P03431
procedure_text: Influenza virus RdRp replicon reporter (Luc) assay in transduced 293T cells
Assay type: cell-based, Influenza A/PR/8/34 (H1N1)
reported_conditions: Methotrexate concentration 0.08 μM; read-out: T-705 50% inhibitory concentration
observed_property: pIC50
One number for each entry, as −log10 of the molar value.

### Prompt Would you mind telling me what pIC50 value was observed for NC(=O)c1nc(F)cnc1O [T-705, 6-Fluoro-3-hydroxy-2-pyrazinecarboxamide] ?
### Response 4.34
